test system: 317291-083-R-J1-PDC complex spheroids, viability; assay: Anticancer human tumor 317291-083-R-J1-PDC patient-derived soft tissue sarcoma cell line growth inhibition [GQUAD]; details: second compound 0.316 µM; first compound 0.316 µM; hits give low values;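 further: spheroids exposed to compounds for one week before readout; percent viability relative to DMSO vehicle wells taken as 100%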
Kindly state viability, T/C for each of the entries shown.
Field: numeric (%). Do not append units.

Respond only with viability, T/C recorded for O=C(NO)c1cnc(N2CCN(S(=O)(=O)c3ccc4ccccc4c3)CC2)nc1 + CN(C)c1ccc(Nc2c3ccc(NC(=O)CCN4CCCC4)cc3nc3cc(NC(=O)CCN4CCCC4)ccc23)cc1
5.83

Respond only with viability, T/C recorded for C=CC(=O)N1CCN(c2nc(=O)n(-c3c(C)ccnc3C(C)C)c3nc(-c4c(O)cccc4F)c(F)cc23)C(C)C1 (centres undefined) + Cc1[nH]c2ccc(F)cc2c1-c1nc2c3cccnc3c3ncccc3c2[nH]1
105

Respond only with viability, T/C recorded for COc1cccc2c1C(=O)c1c(O)c3c(c(O)c1C2=O)CC(O)(C(=O)CO)CC3OC1CC(N)C(O)C(C)O1 (centres undefined) + Cc1cnc(CNC(=O)c2c(=O)c3ccc(N4CCCN(C)CC4)nc3n3c2sc2ccccc23)cn1
22.1

Respond only with viability, T/C recorded for Cc1[nH]c2ccccc2c1CCNCc1ccc(/C=C/C(=O)NO)cc1 + Cc1[nH]c2ccc(F)cc2c1-c1nc2c3cccnc3c3ncccc3c2[nH]1
0.16

Respond only with viability, T/C recorded for CC(=O)O[C@H]1C(=O)[C@@]2(C)[C@H]([C@H](OC(=O)c3ccccc3)[C@]3(O)C[C@H](OC(=O)[C@H](O)[C@@H](NC(=O)c4ccccc4)c4ccccc4)C(C)=C1C3(C)C)[C@]1(OC(C)=O)CO[C@@H]1C[C@@H]2O + Cc1[nH]c2ccc(F)cc2c1-c1nc2c3cccnc3c3ncccc3c2[nH]1
16.8

Respond only with viability, T/C recorded for CC(=O)O[C@H]1C(=O)[C@@]2(C)[C@H]([C@H](OC(=O)c3ccccc3)[C@]3(O)C[C@H](OC(=O)[C@H](O)[C@@H](NC(=O)c4ccccc4)c4ccccc4)C(C)=C1C3(C)C)[C@]1(OC(C)=O)CO[C@@H]1C[C@@H]2O + CN(C)c1ccc(Nc2c3ccc(NC(=O)CCN4CCCC4)cc3nc3cc(NC(=O)CCN4CCCC4)ccc23)cc1
9.98

Respond only with viability, T/C recorded for Nc1ccn(C2OC(CO)C(O)C2(F)F)c(=O)n1 (centres undefined) + Cc1cnc(CNC(=O)c2c(=O)c3ccc(N4CCCN(C)CC4)nc3n3c2sc2ccccc23)cn1
11.2

Respond only with viability, T/C recorded for COc1cccc2c1C(=O)c1c(O)c3c(c(O)c1C2=O)CC(O)(C(=O)CO)CC3OC1CC(N)C(O)C(C)O1 (centres undefined) + Cc1[nH]c2ccc(F)cc2c1-c1nc2c3cccnc3c3ncccc3c2[nH]1
19.7

Respond only with viability, T/C recorded for Cc1cccc(N(C)C(=O)C2C(O)CCN2c2nc(C)cc(C(F)(F)F)c2C#N)c1 (centres undefined) + CN(C)c1ccc(Nc2c3ccc(NC(=O)CCN4CCCC4)cc3nc3cc(NC(=O)CCN4CCCC4)ccc23)cc1
79.9
